// reported pIC50 for each item listed
# system: full-length beta-Catenin (Uniprot ID P35222) (Homo sapiens (Human)) (UniProt P35222)
# Sequence (P35222 whole entry): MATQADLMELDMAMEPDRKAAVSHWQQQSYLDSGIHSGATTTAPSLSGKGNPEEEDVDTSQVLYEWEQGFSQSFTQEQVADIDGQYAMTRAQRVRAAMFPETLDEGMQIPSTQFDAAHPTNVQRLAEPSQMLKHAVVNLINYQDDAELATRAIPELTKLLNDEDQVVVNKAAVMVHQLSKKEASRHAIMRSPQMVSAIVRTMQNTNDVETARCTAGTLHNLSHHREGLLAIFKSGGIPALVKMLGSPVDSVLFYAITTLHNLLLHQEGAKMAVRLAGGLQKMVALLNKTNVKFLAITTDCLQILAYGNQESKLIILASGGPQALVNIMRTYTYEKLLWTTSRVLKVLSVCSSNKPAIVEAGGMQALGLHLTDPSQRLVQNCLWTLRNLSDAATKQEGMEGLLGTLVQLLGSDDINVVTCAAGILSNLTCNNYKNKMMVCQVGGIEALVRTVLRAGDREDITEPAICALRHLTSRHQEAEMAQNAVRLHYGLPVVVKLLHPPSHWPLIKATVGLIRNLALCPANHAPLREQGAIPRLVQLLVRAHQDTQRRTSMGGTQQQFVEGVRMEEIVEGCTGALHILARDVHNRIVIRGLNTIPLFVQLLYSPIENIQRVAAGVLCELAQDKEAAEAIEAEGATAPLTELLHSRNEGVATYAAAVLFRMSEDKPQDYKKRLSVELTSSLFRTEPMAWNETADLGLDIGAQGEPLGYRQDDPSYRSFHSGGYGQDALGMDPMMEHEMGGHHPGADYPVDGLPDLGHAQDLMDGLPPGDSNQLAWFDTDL
# assay explanation: fluorescence polarization competition; competitor 5FAM-TCF4 10-53
pIC50: −log10 of the molar value. Starred links: 1 amine or outer side, 2 acyl side, 3 side chain; linkers in the order of their positions; H or OH if unused. Positions of bridges follow the written chain, without caps; N, C: chain ends. Non-standard residues stand in square brackets, D forms with d. TfeGA = (S)-2-amino-3-((carboxymethyl)(2,2,2-trifluoroethyl)amino)propanoic acid, O=C([C@H](CN(CC(=O)[*:3])CC(F)(F)F)N[*:1])[*:2]; PyrS2 = (S)-3-amino-1-((pent-4-en-1-yloxy)carbonyl)pyrrolidine-3-carboxylic acid, C=CCCCOC(=O)N1CC[C@@](N[*:1])(C(=O)[*:2])C1; B5 = 2-amino-2-(pent-4-en-1-yl)hept-6-enoic acid, C=CCCCC(CCCC=C)(N[*:1])C(=O)[*:2]; Phe(3-COOH) = N[C@@H](Cc1cccc(C(=O)O)c1)C(=O)O; Phe(2-Cl) = N[C@@H](Cc1ccccc1Cl)C(=O)O; Bta = N[C@@H](Cc1csc2ccccc12)C(=O)O; αAllylPro = C=CC[C@@]1(C(=O)O)CCCN1; tBuAla = CC(C)(C)C[C@H](N)C(=O)O; Nle = CCCC[C@H](N)C(=O)O; Aib = CC(C)(N)C(=O)O

- binder: "Ac-[αAllylPro]D[tBuAla][B5]D[TfeGA]AGFT[PyrS2][Phe(2-Cl)][Bta]Q-NH2 (staple 1-4, 4-11) [I-1694]"
  pIC50: 7.24
- binder: "Ac-[αAllylPro]D[tBuAla][B5]D[Phe(3-COOH)][Nle]GFL[PyrS2][Phe(2-Cl)][Bta]Q-NH2 (staple 1-4, 4-11) [I-1688]"
  pIC50: 7.23
- binder: "Ac-[αAllylPro]D[tBuAla][B5]D[TfeGA][Aib]AFT[PyrS2][Phe(2-Cl)][Bta]Q-NH2 (staple 1-4, 4-11) [I-1693]"
  pIC50: 8.00
- binder: "Ac-[αAllylPro]D[tBuAla][B5]D[TfeGA][Nle]GFT[PyrS2][Phe(2-Cl)][Bta]Q-NH2 (staple 1-4, 4-11) [I-1695]"
  pIC50: 7.03
- binder: "Ac-[αAllylPro]D[tBuAla][B5]D[TfeGA][Nle]AFT[PyrS2][Phe(2-Cl)][Bta]Q-NH2 (staple 1-4, 4-11) [I-1692]"
  pIC50: 7.77
